Biological target: recombinant Axl tyrosine kinase (Homo sapiens, UniProt P30530)
Construct: encompassing amino acids 473 to 894 of Axl; GST (N); made in house; host or cells: SF126 insect cells
Sequence (P30530 473-894): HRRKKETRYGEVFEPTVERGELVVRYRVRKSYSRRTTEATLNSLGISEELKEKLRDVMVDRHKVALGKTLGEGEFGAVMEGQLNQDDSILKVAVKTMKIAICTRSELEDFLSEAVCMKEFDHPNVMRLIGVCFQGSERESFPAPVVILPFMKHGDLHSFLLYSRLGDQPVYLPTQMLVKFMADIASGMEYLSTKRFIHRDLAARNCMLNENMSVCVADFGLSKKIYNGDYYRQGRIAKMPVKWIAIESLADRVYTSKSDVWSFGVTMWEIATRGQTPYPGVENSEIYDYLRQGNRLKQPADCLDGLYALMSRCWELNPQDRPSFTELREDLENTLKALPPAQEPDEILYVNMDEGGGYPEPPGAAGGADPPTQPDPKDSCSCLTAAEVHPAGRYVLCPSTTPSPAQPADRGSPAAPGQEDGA
Experiment: In vitro Axl kinase assay (AlphaScreen), Test (a)
Type: biochemical
Settings: test compound at 1 μM; first value quoted
ASSAY_ENDPOINT: % Axl tyrosine kinase inhibition at 1 μM concentration (%)

Take a look at these entries with their results.
# MOLECULE, READOUT_UNITS, QUANTITATIVE_RESULT
rows = [
    ("Nc1ncc(-c2ccc(CN3CCOCC3)cc2)cc1-c1nc2ccccc2o1 [Example 2.7]", "%", 99.1),
    ("Nc1ncc(-c2ccc(N3CCNCC3)cc2)cc1-c1nc2ccccc2o1 [Example 2.14]", "%", 99.9),
    ("CCS(=O)(=O)c1ccc(-c2cnc(N)c(-c3nc4ccccc4o3)c2)cc1 [Example 2.1]", "%", 93.7),
    ("CS(=O)(=O)Oc1cccc(-c2cnc(N)c(-c3nc4ccccc4o3)n2)c1 [Example 20.18]", "%", 98.1),
    ("CN1CCC(CNC(=O)c2ccc(-c3cnc(N)c(-c4nc5cccnc5o4)c3)cc2)CC1 [Example 45A.25]", "%", 97.8),
]

1: CN(C)CCC(=O)N1CCC(n2cc(-c3cnc(N)c(-c4nc5cccnc5o4)c3)cn2)CC1 [Example 59.13]
2: CN1CCN(C(=O)c2cccc(-c3cnc(N)c(-c4nc5ncccc5o4)c3)c2)CC1 [Example 10A.8]
# min-compare on % Axl tyrosine kinase inhibition at 1 μM concentration between 1 and 2 # respond with the chosen item's label
2

---

Molecular target: recombinant Axl tyrosine kinase (Homo sapiens, UniProt P30530)
Construct: encompassing amino acids 473 to 894 of Axl; GST (N); made in house; host or cells: SF126 insect cells
Assay: In vitro Axl kinase assay (AlphaScreen), Test (a)
Type: biochemical
Conditions: test compound at 1 μM; first value quoted
ASSAY_ENDPOINT: % Axl tyrosine kinase inhibition at 1 μM concentration (%)

# COMPOUND, QUANTITATIVE_RESULT
rows = [
    ("COCCC(=O)N1CCC(n2cc(-c3cnc(N)c(-c4nc5cccnc5o4)c3)cn2)CC1", 98.2),
    ("CN1CCC(n2cc(-c3cnc(N)c(-c4nc5ccccc5o4)c3)c(CO)n2)CC1", 100.0),
    ("CN(C)S(=O)(=O)c1ccc(-c2cnc(N)c(-c3nc4ccccc4o3)c2)cc1", 85.1),
    ("Nc1ncc(-c2ccc(C(=O)N3CCCCC3CN3CCOCC3)cc2)cc1-c1nc2cccnc2o1 (centres unmarked) [Example 45A.21]", 96.4),
    ("CN1CC(NC(=O)c2ccc(-c3cnc(N)c(-c4nc5cccnc5o4)c3)cc2)C1 [Example 45A.30]", 97.4),
    ("CS(=O)(=O)Nc1ccc(-c2cnc(N)c(-c3nc4ccccc4o3)c2)cc1", 98.0),
    ("CN1CCN(C(=O)c2ccc(-c3cnc(N)c(-c4nc5cccnc5o4)c3)cc2)CC1 [Example 45A.49]", 96.1),
    ("Nc1ncc(-c2cccc(N3CCCC3)c2)nc1-c1nc2ccccc2o1", 85.6),
]

FYI, the data here is from patent US8017611B2.
